molecular target: 5-HT4 receptor (Cavia porcellus); construct: the mixture was suspended to give receptor membrane preparations; from tissue; host or cells: guinea pig (Slc-Hartley) brain striatum membranes; test: Serotonin 4 (5-HT4) receptor binding assay; set-up: species or system guinea pig; settings: inhibition of specific binding of 0.1 nM [3H]-GR113808; guinea pig striatum membrane preparations; 37° C., 30 minutes; read-out: IC50
pIC50: −log10 of the molar value.
measured-property: pIC50

Some molecules with recorded pIC50:
molecule: COc1cc(N)c(Cl)cc1C(=O)NC[C@H]1CN(CC2CCN(C(=O)c3ccco3)CC2)CCO1 [Example 131]
measured-property: pIC50
assay-value: 8.16
//
molecule: COc1cc(N)c(Cl)cc1C(=O)NC[C@H]1CN(CC2CCN(C(=O)OCC(C)C)CC2)CCO1 [Example 102]
measured-property: pIC50
assay-value: 8.17
//
molecule: COc1cc(N)c(Cl)cc1C(=O)NC[C@H]1CN(CC2CCN(C(=O)CC3CCNCC3)CC2)CCO1 [Example 194]
measured-property: pIC50
assay-value: 7.99
//
molecule: CCOc1cc(N)c(Cl)cc1C(=O)NC[C@H]1CN(CC2CCN(C(=O)n3ccnc3)CC2)CCO1 [Example 206]
measured-property: pIC50
assay-value: 7.97
//
molecule: CCOc1cc(N)c(Cl)cc1C(=O)NC[C@H]1CN(CC2CCN(C(=O)N(C)C)CC2)CCO1 [Example 72]
measured-property: pIC50
assay-value: 8.04

I: COc1cc(N)c(Cl)cc1C(=O)NC[C@H]1CN(CC2CCN(C(=O)c3nc[nH]n3)CC2)CCO1 [Example 229]
II: COc1cc(N)c(Cl)cc1C(=O)NC[C@H]1CN(CC2CCN(C(=O)c3cccc4c3OCC4)CC2)CCO1 [Example 177]
Query: Which has the smaller recorded pIC50, I or II ? Let me know the label of the one you choose.
Reply: I
(I: 7.74, II: 8.79)

----------
target: 5-HT4 receptor (Cavia porcellus, UniProt O70528); construct: the mixture was suspended to give receptor membrane preparations; from tissue; host or cells: guinea pig (Slc-Hartley) brain striatum membranes; assay: Serotonin 4 (5-HT4) receptor binding assay; set-up: species or system guinea pig; conditions: inhibition of specific binding of 0.1 nM [3H]-GR113808; guinea pig striatum membrane preparations; 37° C., 30 minutes; read-out: IC50
Sequence (O70528 whole entry): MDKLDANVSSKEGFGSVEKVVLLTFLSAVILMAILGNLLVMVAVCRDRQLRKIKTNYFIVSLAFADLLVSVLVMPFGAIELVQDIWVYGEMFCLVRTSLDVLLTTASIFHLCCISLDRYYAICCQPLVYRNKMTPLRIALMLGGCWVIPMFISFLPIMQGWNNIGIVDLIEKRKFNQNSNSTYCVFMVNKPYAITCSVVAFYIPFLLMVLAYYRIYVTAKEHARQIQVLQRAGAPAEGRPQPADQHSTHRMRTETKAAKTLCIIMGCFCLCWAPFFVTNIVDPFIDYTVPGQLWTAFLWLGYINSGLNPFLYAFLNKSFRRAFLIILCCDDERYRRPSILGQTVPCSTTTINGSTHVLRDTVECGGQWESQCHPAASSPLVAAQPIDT
measured-property: IC50 (nM)

molecule: COc1cc(N)c(Cl)cc1C(=O)NC[C@H]1CN(CC2CCN(C(=O)c3cccc(OC(C)=O)c3)CC2)CCO1 [Example 168]
IC50, nM: 5.17

molecule: COc1cc(N)c(Cl)cc1C(=O)NC[C@H]1CN(CC2CCN(C(=O)c3ccc(C)s3)CC2)CCO1 [Example 178]
IC50, nM: 1.24

P: C=CC=CC(=O)N1CCC(CN2CCOC(CNC(=O)c3cc(Cl)c(N)cc3OCC)C2)CC1 (racemic) [Example 163]
Q: COc1cc(N)c(Cl)cc1C(=O)NC[C@H]1CN(CC2CCN(C(=O)c3ccc(N(C)C)cc3)CC2)CCO1 [Example 172]
Query: Which has the smaller recorded IC50, P or Q ? Let me know the label of the one you choose.
Reply: Q

A: CN(C)C(=O)N1CCC(CN2CCO[C@@H](CNC(=O)c3cc(Cl)c(N)c4c3OCC4)C2)CC1 [Example 136]
B: CCCOC(=O)N1CCC(CN2CCO[C@@H](CNC(=O)c3cc(Cl)c(N)cc3OC)C2)CC1 [Example 98]
Query: Kindly identify which of A and B has the larger recorded IC50 value. Let me know the label of the one you choose.
Reply: B

----------
test system: Male Slc-ddy mice; assay: Mouse defecation assay; assay type: in vivo; design: key: −: No Effect; +: Moderately Improved (p<0.05); ++: Significantly Improved (p<0.01); settings: 3 mg/kg orally; stool weight 30, 60 and 120 minutes after administration; Dunnett assay vs control
measured-property: Effect

Some compounds with recorded Effect:
compound: COC(=O)N1CCC(CN2CCO[C@@H](CNC(=O)c3cc(Cl)c(N)cc3OC)C2)CC1 [Example 92]
Effect: +

compound: CC(=O)N1CCC(CN2CCO[C@@H](CNC(=O)c3cc(Cl)c(N)c4c3OCC4)C2)CC1 [Example 231]
Effect: ++

compound: COc1cc(N)c(Cl)cc1C(=O)NC[C@H]1CN(CC2CCN(C(=O)C3CCOC3)CC2)CCO1 (some centres unmarked) [Example 226]
Effect: ++

compound: CCOc1cc(N)c(Cl)cc1C(=O)NC[C@H]1CN(CC2CCN(C(=O)c3ccc(C)cc3)CC2)CCO1 [Example 121]
Effect: ++

Effect on Male Slc-ddy mice for Nc1c(Cl)cc(C(=O)NC[C@H]2CN(CC3CCN(C(=O)CO)CC3)CCO2)c2c1CCO2 [Example 233] is ++

----------
target: 5-HT4 receptor (Cavia porcellus); construct: the mixture was suspended to give receptor membrane preparations; from tissue; host or cells: guinea pig (Slc-Hartley) brain striatum membranes; test: Serotonin 4 (5-HT4) receptor binding assay; design: species or system guinea pig; settings: inhibition of specific binding of 0.1 nM [3H]-GR113808; guinea pig striatum membrane preparations; 37° C., 30 minutes; read-out: IC50
pIC50: −log10 of the molar value.
measured-property: pIC50

Some molecules with recorded pIC50:
molecule: CCOc1cc(N)c(Cl)cc1C(=O)NCC1CN(CC2CCN(C(=O)c3ccccc3)CC2)CCO1 (stereo not drawn) [Example 112]
pIC50: 8.52
//
molecule: CCOc1cc(N)c(Cl)cc1C(=O)NC[C@H]1CN(CC2CCN(C(=O)c3ccccc3OC(C)=O)CC2)CCO1 [Example 167]
pIC50: 8.20
//
molecule: COc1cc(N)c(Cl)cc1C(=O)NC[C@H]1CN(CC2CCN(C(=O)c3ccc(-c4ccccc4)cc3)CC2)CCO1 [Example 175]
pIC50: 8.21
//
molecule: Nc1c(Cl)cc(C(=O)NC[C@H]2CN(CC3CCN(C(=O)C4CCOC4)CC3)CCO2)c2c1CCO2 (stereo partly drawn) [Example 232]
pIC50: 8.13
//
molecule: CCOc1cc(N)c(Cl)cc1C(=O)NCC1CN(CC2CCN(C(=O)OC)CC2)CCO1 (stereo not drawn) [Example 93]
pIC50: 8.03
//
molecule: CC(=O)N1CCC(CN2CCO[C@@H](CNC(=O)c3cc(Cl)c(N)c4c3OCC4)C2)CC1 [Example 231]
pIC50: 8.04
//
molecule: COc1cc(N)c(Cl)cc1C(=O)NC[C@H]1CN(CC2CCN(C(=O)c3ccc(OC(C)=O)cc3)CC2)CCO1 [Example 169]
pIC50: 8.22
//
molecule: COc1cc(N)c(Cl)cc1C(=O)NC[C@H]1CN(CC2CCN(C(=O)NCc3ccccc3C)CC2)CCO1 [Example 60]
pIC50: 8.73
//
molecule: COc1cc(N)c(Cl)cc1C(=O)NC[C@H]1CN(CC2CCN(C(=O)Nc3cc(C)cc(C)c3)CC2)CCO1 [Example 57]
pIC50: 8.74
//
molecule: COc1cc(N)c(Cl)cc1C(=O)NC[C@H]1CN(CC2CCN(C(=O)N3CCCC3)CC2)CCO1 [Example 89]
pIC50: 8.13

I: COc1cc(N)c(Cl)cc1C(=O)NC[C@H]1CN(CC2CCN(C(=O)c3ccc(N)c(Cl)c3)CC2)CCO1 [Example 176]
II: CCOc1cc(N)c(Cl)cc1C(=O)NC[C@H]1CN(CC2CCN(C(=O)c3ccc(OC)cc3)CC2)CCO1 [Example 126]
Query: Kindly identify which of I and II has the larger recorded pIC50 value. Let me know the label of the one you choose.
Reply: I
(I: 9.14, II: 8.63)

----------
tested on: Male Slc-Hartley guinea pigs; experiment: Electrocardiographic assay for guinea pig; details: dose extending 5% of QTc; i.v. infusion for 15 minutes, anesthetized guinea pigs, ECG lead II
measured-property: ED5% (mg/kg,i.v.)

compound: COc1cc(N)c(Cl)cc1C(=O)NC[C@H]1CN(CC2CCN(C(=O)c3nc[nH]n3)CC2)CCO1
ED5% (mg/kg,i.v.): >30 mg/kg
--
compound: COCC(=O)N1CCC(CN2CCO[C@@H](CNC(=O)c3cc(Cl)c(N)cc3OC)C2)CC1
ED5% (mg/kg,i.v.): >30 mg/kg
--
compound: COc1cc(N)c(Cl)cc1C(=O)N[C@H]1CCN(CCCOc2ccc(F)cc2)C[C@H]1OC (relative stereo) [Cisapride, reference compound]
ED5% (mg/kg,i.v.): 0.3 mg/kg

Record COc1cc(N)c(Cl)cc1C(=O)NC[C@H]1CN(CC2CCN(C(=O)c3cccc(C)c3)CC2)CCO1 , field ED5% (mg/kg,i.v.): >30 mg/kg

----------
test system: Male Slc-ddy mice; assay: Mouse defecation assay; assay type: in vivo; parameters: key: −: No Effect; +: Moderately Improved (p<0.05); ++: Significantly Improved (p<0.01); conditions: 3 mg/kg orally; stool weight 30, 60 and 120 minutes after administration; Dunnett assay vs control
measured-property: Effect

Some compounds with recorded Effect:
compound: COc1cccc(C(=O)N2CCC(CN3CCO[C@@H](CNC(=O)c4cc(Cl)c(N)cc4OC)C3)CC2)c1
test-target: Male Slc-ddy mice
measured-property: Effect
assay-value: +
//
compound: COc1cc(N)c(Cl)cc1C(=O)NC[C@H]1CN(CC2CCN(C(=O)c3ccc(C#N)cc3)CC2)CCO1
test-target: Male Slc-ddy mice
measured-property: Effect
assay-value: ++
//
compound: C=CCOC(=O)N1CCC(CN2CCO[C@@H](CNC(=O)c3cc(Cl)c(N)cc3OC)C2)CC1
test-target: Male Slc-ddy mice
measured-property: Effect
assay-value: ++
//
compound: COc1cc(N)c(Cl)cc1C(=O)NC[C@H]1CN(CC2CCN(C(=O)c3ccc(OC(C)=O)cc3)CC2)CCO1
test-target: Male Slc-ddy mice
measured-property: Effect
assay-value: ++
//
compound: COc1cc(N)c(Cl)cc1C(=O)NC[C@H]1CN(CC2CCN(C(=O)C(C)=O)CC2)CCO1
test-target: Male Slc-ddy mice
measured-property: Effect
assay-value: ++

Effect on Male Slc-ddy mice for CN(C)C(=O)N1CCC(CN2CCOC(CNC(=O)c3cc(Cl)c(N)c4c3OCC4)C2)CC1 (stereo not drawn) is ++

Effect on Male Slc-ddy mice for COc1cc(N)c(Cl)cc1C(=O)NC[C@H]1CN(CC2CCN(C(=O)c3cccc(C)c3)CC2)CCO1 is +
